// reported self-cleavage per item
B1: HDV Ribozyme (parent)
chain: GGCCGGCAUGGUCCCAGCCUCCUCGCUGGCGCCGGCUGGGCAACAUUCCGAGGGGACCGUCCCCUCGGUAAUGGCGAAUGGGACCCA

Variants of: B1
method: self-cleavage, relative activity (ratio to wild type); higher = more cleavage; co-transcriptional
measurementKind: self-cleavage

A16U C84U; 0.678
G5U C18G; 0
G2A U65A; 0.173
C49G C75G; 0.299
C7U G52C; 0.849
C33G U46C; 0.185
C4U U9G; 0.782
C19U G35C; 0.0831
G38C C75G; 0.104
G11C G80A; 0.136
G25U C49A; 0.175
U79C G81A; 0.208
G31A C61U; 0.442
C13G C15U; 0
A42U C58U; 0.271
C26G U47G; 1.08
C18G A51G; 0
U9A U20G; 0.151
